# measured on: UniProt Q07817
# Sequence (Q07817 whole entry): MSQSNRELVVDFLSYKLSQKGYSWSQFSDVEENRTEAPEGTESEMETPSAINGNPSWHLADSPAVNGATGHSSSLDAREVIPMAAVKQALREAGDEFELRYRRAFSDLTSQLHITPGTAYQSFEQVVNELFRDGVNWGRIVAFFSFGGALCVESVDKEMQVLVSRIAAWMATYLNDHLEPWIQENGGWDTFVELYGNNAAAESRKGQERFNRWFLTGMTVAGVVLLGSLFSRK
Label key: met means IC50 under 50 nM; not met means IC50 of 50 nM or more.

# TODO verify IC50 < 50 nM strictly for this compound: `CCCCN(C(=O)c1nn(-c2ccc(C(=O)NS(=O)(=O)c3ccc4ccccc4c3)cc2C(=O)N2CCc3ccccc3C2)c(C)c1Cl)c1cccc(-c2cccc(Cl)c2)c1`
not met

Does the reported IC50 of `CCCCN(CCCC)C(=O)c1nn(-c2ccc(C(=O)NS(=O)(=O)c3cc(Br)c4c(c3)c(Br)cn4CC)cc2C(=O)N2CCc3ccccc3C2)c(C)c1Cl` stay below 50 nM?
met

Please indicate whether the reported IC50 of `CCCCN(CCCC)C(=O)c1nn(-c2ccc(C(=O)NS(=O)(=O)c3ccc4ccc(Cl)cc4c3)cc2C(=O)N2CCc3ccccc3C2)c(C)c1Cl` is strictly below 50 nM.
not met

Just wondering, is IC50 of `CCCCN(CCc1ccc(Cl)c(Cl)c1)C(=O)c1nn(-c2ccc(C(=O)NS(=O)(=O)c3ccc4ccccc4c3)cc2C(=O)N2CCc3ccccc3C2)c(C)c1Cl` below 50 nM?
not met

Lab note: confirm whether the reported IC50 for this compound is below 50 nM, equality not counting. compound: `CCCCc1c(-c2ccc(C(=O)NS(=O)(=O)c3ccc4ccccc4c3)cc2C(=O)N2CCc3ccccc3C2)c(C(=O)OCC)nn1-c1ccc(Oc2ccccc2)cc1`
not met

Identify whether the compound `CCCCN(C(=O)c1nn(-c2ccc(C(=O)NS(=O)(=O)c3ccc4c(Cl)ccc(Cl)c4c3)cc2C(=O)N2CCc3ccccc3C2)c(C)c1Cl)c1cccc(-c2ccc(Cl)cc2)c1` records IC50 below 50 nM.
met

IC50 strictly < 50 nM for this compound? `CCCCN(CCCC)C(=O)c1nn(-c2ccc(C(=O)NS(=O)(=O)c3ccc4c(c3)CCN4Cc3ccc(Cl)c(Cl)c3)cc2C(=O)N2CCc3ccccc3C2)c(C)c1Cl`
met

Determine if `CCCCN(CCCC)C(=O)c1nn(-c2ccc(C(=O)NS(=O)(=O)c3ccc4c(Cl)ccc(Cl)c4c3)cc2C(=O)N2CCc3ccccc3C2)c(C)c1Cl` shows IC50 strictly lower than 50 nM.
met

is_below(IC50, 50 nM) for `CCCCN(CCCC)C(=O)c1nn(-c2ccc(C(=O)NS(=O)(=O)c3cc(Br)c4c(c3)CCN4CC)cc2C(=O)N2Cc3ccccc3C[C@H]2CO)c(C)c1Cl` ?
met

State whether 50 nM exceeds IC50 recorded for `CCCCN(CCCC)C(=O)c1nn(-c2ccc(C(=O)NS(=O)(=O)c3ccc4c(c3)CCN4C(=O)C3CCCCC3)cc2C(=O)N2CCc3ccccc3C2)c(C)c1Cl` .
not met

Threshold test, IC50 < 50 nM: `CCCCN(CCCC)C(=O)c1nn(-c2ccc(C(=O)NS(=O)(=O)c3ccc4c(Cl)ccc(Br)c4c3)cc2C(=O)N2CCc3ccccc3C2)c(C)c1Cl`
met

Report whether reported IC50 is lower than 50 nM (strictly) for `CCCCN(C(=O)c1nn(-c2ccc(C(=O)NS(=O)(=O)c3ccc4c(Cl)ccc(Cl)c4c3)cc2C(=O)N2CCc3ccccc3C2)c(C)c1Cl)c1cccc(-c2cccc(Cl)c2)c1`
met

Take the compound `CCCCN(CCCC)C(=O)c1nn(-c2ccc(C(=O)NS(=O)(=O)c3ccc4cccc(Cl)c4c3)cc2C(=O)N2CCc3ccccc3C2)c(C)c1Cl` and say whether its IC50 is less than 50 nM.
not met

Could you please tell me whether IC50 recorded for `CCCCN(CCCC)c1nn(-c2ccc(C(=O)NS(=O)(=O)c3ccc4ccccc4c3)cc2C(=O)N2CCc3ccccc3C2)c(C)c1Cl` is less than 50 nM?
not met

API: query returns whether the compound falls strictly under 50 nM in IC50. Query: `CCCCN(CCCC)C(=O)c1nn(-c2ccc(C(=O)NS(=O)(=O)c3ccc4ccccc4c3)cc2C(=O)N2CCc3ccccc3C2)c(C)c1Cl`
met

Quick check: does `CCCCN(CCCC)C(=O)c1nn(-c2ccc(C(=O)NS(=O)(=O)c3ccc4c(Cl)cccc4c3)cc2C(=O)N2CCc3ccccc3C2)c(C)c1Cl` have IC50 under 50 nM?
met

API: query returns whether the compound falls strictly under 50 nM in IC50. Query: `CCCCN(CCCC)C(=O)c1cccc(-c2ccc(C(=O)NS(=O)(=O)c3ccc4ccccc4c3)cc2C(=O)N2CCc3ccccc3C2)n1`
not met

Strictly below 50 nM in IC50? `CCCCN(CCCC)C(=O)c1nn(-c2ccc(C(=O)NS(=O)(=O)c3ccc4cccc(Cl)c4c3)cc2C(=O)N2Cc3ccccc3C[C@H]2CN)c(C)c1Cl`
met

State whether 50 nM exceeds IC50 recorded for `CCCCN(CCCC)C(=O)c1nn(-c2ccc(C(=O)NS(=O)(=O)c3ccc4ccc(OCCCN5CCN(C)CC5)cc4c3)cc2C(=O)N2CCc3ccccc3C2)c(C)c1Cl` .
met

Please determine if `CCCCN(CCCC)C(=O)c1nn(-c2ccc(C(=O)NS(=O)(=O)c3cc(Br)c4c(ccn4CC)c3)cc2C(=O)N2Cc3ccccc3C[C@H]2CO)c(C)c1Cl` is below 50 nM in terms of IC50.
met
